# run-description: Quantitative High-Throughput drug screen in 47 multiple myeloma cell lines against the NCATS MIPE library collection: KMS28PE_JCRB cell viability assay (AID 1918983); note: nearly all actives have a fitted effect of over 35% in size; note: potency is the fitted concentration of half-maximal effect
# run-parameters: KMS28PE multiple myeloma viability, CellTiter-Glo ATP, 48 h; series mostly up to 45.8 µM
Results filed as inconclusive are left out. Active and inactive are the calls of the source. Calls come from the whole dose curve; as a rule, active = well fitted cell-killing curve with a large enough effect; inconclusive = small, poorly fitted or top-dose-only effect, or effect the other way; inactive = no such curve, though single readings can be large or run the other way.
attribute-measured: Potency

molecule	Potency
C[C@@H]1CCN(C(=O)CC#N)C[C@H]1N(C)c1ncnc2[nH]ccc12	inactive
O=C(CCN1CCN(C(=O)OCc2cc(Cl)cc(Cl)c2)CC1)c1ccc2[nH]c(=O)oc2c1	inactive
NC(=O)c1cccc2[nH]c(-c3ccc([C@H]4CCCN4)cc3F)nc12	inactive
Cc1c[nH]c(C=C2C(=O)Nc3ccccc32)c1CCC(=O)O	23.5 µM (active)
Cc1c(NC(=O)c2ccc(C(C)(C)C)cc2)cccc1-c1cn(C)c(=O)c(Nc2ccc(C(=O)N3CCOCC3)cc2)n1	23.5 µM (active)
CN1[C@@H]2CCC[C@@H]1CC(NC(=O)c1nn(C)c3ccccc13)C2 (some centres undefined)	inactive
CC(C)OC(=O)C(C)(C)Oc1ccc(C(=O)c2ccc(Cl)cc2)cc1	16.6 µM (active)
COc1ccc(-c2coc3cc(O)cc(O)c3c2=O)cc1	inactive
Oc1ccc(C2=Cc3ccc(O)cc3OC2)cc1	18.7 µM (active)
O=C(O)C(O)Cc1ccc(O)c(O)c1 (centres undefined)	23.5 µM (active)

In plain terms, CNC1CCC(N(Cc2cccc(-c3ccncc3)c2)C(=O)c2sc3c(F)ccc(F)c3c2Cl)CC1 (centres undefined) has a documented Potency of 16.6 µM (active)

In plain terms, CCn1cc(C(=O)O)c(=O)c2ccc(C)nc21 has a documented Potency of inactive

* * *

# run-description: Quantitative High-Throughput drug screen in 47 multiple myeloma cell lines against the NCATS MIPE library collection: OCIMY7_PLB cell viability assay (AID 1918987); note: potency is the fitted concentration of half-maximal effect; nearly all actives have a fitted effect of over 65% in size
# run-parameters: OCI-MY7 myeloma viability, CellTiter-Glo ATP, 48 h
# Text: PI: Beverly A. Mock Ph.D. Laboratory of Cancer Biology and Genetics, Center for Cancer Research, National Cancer Institute, National Institute of Health, Bethesda, Maryland […] 5; Detector; 425V; Luminescence; Viewlux PerkinElmer. […] 1. […] Briefly, the corresponding myeloma cell lines were screened in 1,536-well plates with 500 cells, 5-uL per well for inhibition of cell viability (assessed by measuring ATP levels with CellTiterGlo). […]
Results filed as inconclusive are left out. Calls of active or inactive are those of the source. Calls come from the whole dose curve; as a rule, active = well fitted cell-killing curve with a large enough effect; inconclusive = small, poorly fitted or top-dose-only effect, or effect the other way; inactive = no such curve, though single readings can be large or run the other way.
attribute-measured: Potency

Record excerpt, results attached:
molecule	Potency
CNC1CCC(N(Cc2cccc(-c3ccncc3)c2)C(=O)c2sc3c(F)ccc(F)c3c2Cl)CC1 (centres undefined)	0.0662 µM (active)
CN[C@@H](C)C(=O)N[C@H]1CN(C(=O)CC(C)C)CC[C@H]2CC[C@@H](C(=O)NC(c3ccccc3)c3ccccc3)N2C1=O	10.5 µM (active)
CC1CCC(C(=O)N(c2cc(C#CC(C)(C)C)sc2C(=O)O)C2CCC(O)CC2)CC1 (centres undefined)	23.5 µM (active)

In plain terms, c1ccc2c(Cc3c[nH]c4ccccc34)c[nH]c2c1 has a documented Potency of 1.05 µM (active)

In plain terms, COc1ccc(-c2cc(=O)c3c(O)cc(O)cc3o2)cc1O has a documented Potency of 3.72 µM (active)

In plain terms, NC(=O)c1cccc(-c2cc(Nc3ccc(OC(F)(F)F)cc3)ncn2)c1 has a documented Potency of 13.2 µM (active)

In plain terms, O=C1C(Cl)=C(NCCN2CCOCC2)C(=O)c2ncccc21 has a documented Potency of 3.32 µM (active)

In plain terms, NC(CO)(CO)CCc1ccc(Sc2cccc(OCc3ccccc3)c2)cc1Cl has a documented Potency of 11.8 µM (active)

In plain terms, CC(=O)N(C)C1(c2ccccc2)CCN(CCC[C@]2(c3ccc(Cl)c(Cl)c3)CCCN(C(=O)c3ccccc3)C2)CC1 has a documented Potency of 14.8 µM (active)

* * *

# run-description: qHTS for differential inhibitors of proliferation of Plasmodium falciparum line HB3 (AID 1886);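 note: parasites grown with compound for 72 h before SYBR Green readout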
# run-parameters: Plasmodium falciparum HB3 proliferation inhibition; series mostly up to 28.7 µM
Records with an inconclusive call do not appear. Activity calls are given as the source filed them. Calls come from the whole dose curve; as a rule, active = well fitted curve in the direction sought with a large enough effect; inconclusive = small, poorly fitted or top-dose-only effect, or another doubt; inactive = no such curve, though single readings can be large or run the other way.
Write down one outcome, taken from active, inactive

Past entries and their recorded results:
molecule	discrete-label
Clc1ccc(Cn2c(CN3CCCC3)nc3ccccc32)cc1	active
CCN(CC)C(=O)c1ccc(O)c(OC)c1	inactive
O=c1c(-c2ccc(O)cc2)coc2cc(O)ccc12	inactive
CCN(CC)CCNC(=O)c1ccc(N)cc1	inactive
O=C1NC(=O)C(c2ccccc2)(c2ccccc2)N1	inactive

Recorded call for O=C1NCC2(CCN(CCc3ccccc3)CC2)O1 ? inactive

Recorded call for CN(C)CCC(c1ccccc1)c1ccccn1 (centres undefined) ? inactive

Recorded call for CCN(CC)CCOC(=O)c1ccc(N)cc1 ? inactive

Recorded call for C[N+](C)(C)CCCCCC[N+](C)(C)C ? inactive

Recorded call for CC1=C(/C=C/C(C)=C/C=C/C(C)=C/C(=O)Nc2ccc(O)cc2)C(C)(C)CCC1 ? active

Recorded call for NCCS ? inactive

Recorded call for CC1(C)CCC2=C(O1)c1ccccc1C(=O)C2=O ? active

Recorded call for CC/C(=C(\c1ccccc1)c1ccc(OCCN(C)C)cc1)c1ccccc1 ? active

Recorded call for CC(=O)c1ccc(S(=O)(=O)NC(=O)NC2CCCCC2)cc1 ? inactive

* * *

# run-description: Quantitative High-Throughput drug screen in 47 multiple myeloma cell lines against the NCATS MIPE library collection: KMS12BM_JCRB cell viability assay (AID 1918971); note: nearly all actives have a fitted effect of over 35% in size
# run-parameters: KMS12BM myeloma viability, CellTiter-Glo ATP, 48 h; series mostly up to 45.8 µM
Inconclusive results are not listed. Activity calls are given as the source filed them. Calls follow the shape of the dose curve; as a rule, active = well fitted cell-killing curve with a large enough effect; inconclusive = small, poorly fitted or top-dose-only effect, or effect the other way; inactive = no such curve, though single readings can be large or run the other way.
Write down one outcome, taken from t = active, f = inactive

Past entries and their recorded results:
compound	discrete-label
CC(C)(C)Cn1c(N)nc2ccc(-c3[nH]c(C(C)(C)C)nc3-c3ccc(F)cc3)nc21	t
CCn1c(C(=O)N(C2CC2)C2CC2)cc2c3c(ncn3C)c(Nc3cc(C)n(C)n3)nc21	f
CC(C)=CC[C@@H](O)C1=CC(=O)c2c(O)ccc(O)c2C1=O	t
NC(=O)c1cccc(-c2cc(Nc3ccc(OC(F)(F)F)cc3)ncn2)c1	t
COCCOC(=O)C1=C(C)NC2=C(C(=O)CC(c3ccccc3OC)C2)C1c1cccc(O)c1 (stereo unspecified)	t

Recorded call for CCc1ccc(OCc2ccccc2C(=O)Nc2ccc3nc(C)cc(N)c3c2)cc1 ? t

Recorded call for COc1ccc(-c2nc(N3CCOCC3)c3sc(CN(C)c4ncc(C(=O)NO)cn4)cc3n2)cn1 ? f

* * *

# run-description: qHTS of pediatric cancer cell lines to identify multiple opportunities for drug repurposing: Confirmatory screen for control Hh wild type fibroblast cells (AID 1347121); note: nearly all actives have a fitted effect of over 70% in size
# run-parameters: viability qHTS; series mostly up to 45.9 µM
Results filed as inconclusive are left out. Active and inactive are the calls of the source. Calls come from the whole dose curve; as a rule, active = well fitted cell-killing curve with a large enough effect; inconclusive = small, poorly fitted or top-dose-only effect, or effect the other way; inactive = flat fitted curve, though single readings scatter.
Write down one outcome, taken from active, inactive

smiles-input	discrete-label
O=C(NCc1ccncc1)C12C[C@H]3C[C@@H](C1)CC(c1ccc(Cl)cc1)(C3)C2	inactive
CCc1ccc(OCc2ccccc2C(=O)Nc2ccc3nc(C)cc(N)c3c2)cc1	active
NS(=O)(=O)c1cccc2c1C(=O)c1cccc(O)c1C2=O	active
COc1ccc2c(Oc3ccc(NC(=O)c4c(C)n(CC(C)(C)O)n(-c5ccccc5)c4=O)cc3F)ccnc2c1	inactive

Recorded call for O=C1c2ccccc2-[n+]2ccc3c([nH]c4ccccc43)c21 ? active

* * *

# run-description: qHTS of pediatric cancer cell lines to identify multiple opportunities for drug repurposing: Primary screen for LAN-5 cells (AID 1347100)
# run-parameters: LAN-5 neuroblastoma viability, CellTiter-Glo luminescence, 48 h; series mostly up to 46 µM
Results filed as inconclusive are left out. The source made the active and inactive calls. Calls follow the shape of the dose curve; as a rule, active = well fitted cell-killing curve with a large enough effect; inconclusive = small, poorly fitted or top-dose-only effect; inactive = no such curve, though single readings can be large or run the other way.
Write down one outcome, taken from TRUE (active), FALSE (inactive)

Past entries and their recorded results:
compound	discrete-label
CC[C@@H]1C=C(C)C[C@H](C)C[C@H](OC)[C@H]2O[C@@](O)(C(=O)C(=O)N3CCCC[C@@H]3C(=O)O[C@H](C(C)=C[C@@H]3CC[C@H](Cl)[C@H](OC)C3)[C@H](C)[C@@H](O)CC1=O)[C@H](C)C[C@H]2OC	TRUE
CCN(CC)CCNC(=O)c1ccc(N)cc1	FALSE
COc1ccccc1N1CCN(CCCNc2cc(=O)n(C)c(=O)n2C)CC1	FALSE

Now, please, on to the next compound.
Recorded call for Cc1nnc(C(C)C)n1C1C[C@H]2CC[C@@H](C1)N2CC[C@H](NC(=O)C1CCC(F)(F)CC1)c1ccccc1 (some centres undefined) ? FALSE

* * *

# run-description: qHTS of pediatric cancer cell lines to identify multiple opportunities for drug repurposing: Primary screen for BT-37 cells (AID 1347094)
# run-parameters: BT-37 viability, CellTiter-Glo luminescence, 48 h; series mostly up to 57.3 µM
Results filed as inconclusive are left out. Active and inactive are the calls of the source. Calls come from the whole dose curve; as a rule, active = well fitted cell-killing curve with a large enough effect; inconclusive = small, poorly fitted or top-dose-only effect; inactive = flat fitted curve, though single readings scatter.
Write down one outcome, taken from label 1 = active, label 0 = inactive

Past entries and their recorded results:
smiles-input	discrete-label
O=C1NC(=O)C(=Cc2cccc(C(F)(F)F)c2)S1	label 0
O=C(O)[C@H]1O[C@H](Oc2cc3oc(-c4ccccc4)cc(=O)c3c(O)c2O)[C@H](O)[C@@H](O)[C@H]1O	label 0
CC=C(C)C(=O)O[C@H]1C(C)=C[C@]23C(=O)[C@@H](C=C(CO)[C@@H](O)[C@]12O)[C@H]1[C@@H](C[C@H]3C)C1(C)C	label 1
O=c1ccn([C@@H]2O[C@H](CO)[C@H](O)[C@H]2O)c(=O)[nH]1	label 0
CCOC(=O)O[C@]1(C(=O)OCCl)CC[C@@H]2[C@H]3CCC4=CC(=O)C=C[C@]4(C)[C@@H]3[C@@H](O)C[C@@]21C	label 0
Nc1ncnc2c1ncn2[C@@H]1O[C@H](CO)C[C@@H]1O	label 0
O=C(O)Cc1cccc2ccccc12	label 0
CCC(=O)NC[C@H](Cc1ccc(OCCc2nc(-c3ccccc3)oc2C)cc1)NC(C)=CC(=O)c1ccc(C(F)(F)F)cc1	label 1

Recorded call for CCC(CC)[C@H](NC(C)=O)[C@@H]1[C@H](O)[C@@H](C(=O)O)C[C@@H]1N=C(N)N ? label 0

Recorded call for CN(C)Cc1cccc(N=C(c2ccccc2)c2c(O)[nH]c3cc(C(=O)N(C)C)ccc23)c1 ? label 1

Recorded call for CC(=Cc1ccccc1)C=C1SC(=S)N(CC(=O)O)C1=O ? label 0
